# System: SARS-CoV-2 (USA_WA1/2020)
# Experiment: microbe, parasite or virus in culture
# Assay type: cell-based
# Conditions Used: SARS-CoV-2 CPE assay, Vero E6 cells; read-out: CPE EC50
Could you please report measured pEC50 for the items listed next?
One number for each entry, as −log10 of the molar value.

Examples with their reported pEC50 follow.
molecule="O=C(/C=C/c1ccc(Cl)cc1)N1CCC2(CC1)CN(Cc1ccc(Cl)c(Cl)c1)C(=O)O2 [GSK-682753A]" result_type=pEC50 observed_result=4.95
molecule="COc1cc(-c2cc(-c3ccc(N4CCNCC4)cc3)cnc2C)cc(OC)c1OC [LDN-214117]" result_type=pEC50 observed_result=4.95
molecule="CNC(=O)c1ccc2c(C(=Nc3cccc(CN(C)C)c3)c3ccccc3)c(O)[nH]c2c1 [NCGC00346543]" result_type=pEC50 observed_result=4.90
molecule="COc1cc2c(Nc3ccc(NC(=O)c4ccccc4)cc3)ncnc2cc1OCCCN1CCOCC1 [ZM-447439]" result_type=pEC50 observed_result=4.85
molecule="COC(=O)CC[C@@H](C)[C@H]1CC[C@H]2[C@@H]3CC[C@@H]4C[C@H](OC(C)=O)CC[C@]4(C)[C@H]3C[C@H](O)[C@]12C (racemic)" result_type=pEC50 observed_result=4.90
molecule="Cc1ccc(-c2c(C(=O)CCl)n(CCCO)c3ncnc(N)c23)cc1 [CMK]" result_type=pEC50 observed_result=4.90

For every listed record, write down its pEC50.
1. CC(C)(C)c1ccc(CN2CCN(C(c3ccccc3)c3ccc(Cl)cc3)CC2)cc1.Cl.Cl (centres unmarked) [Buclizine HCl]
2. COc1cccc2c1CCCC2CCCN1CCN(C2CCCCC2)CC1 (centres unmarked) [PB-28]

output:
1. 4.85
2. 4.95
